system-tested: wild-type human ALK (cytoplasmic domain, amino acids 1058-1620, N-terminal GST fusion) (Homo sapiens)
Construct: The cytoplasmic domain (amino acids 1058-1620) of wild-type human ALK; GST (N); made in house; host or cells: SF9 insect cells
Sequence (Q9UM73 1058-1620): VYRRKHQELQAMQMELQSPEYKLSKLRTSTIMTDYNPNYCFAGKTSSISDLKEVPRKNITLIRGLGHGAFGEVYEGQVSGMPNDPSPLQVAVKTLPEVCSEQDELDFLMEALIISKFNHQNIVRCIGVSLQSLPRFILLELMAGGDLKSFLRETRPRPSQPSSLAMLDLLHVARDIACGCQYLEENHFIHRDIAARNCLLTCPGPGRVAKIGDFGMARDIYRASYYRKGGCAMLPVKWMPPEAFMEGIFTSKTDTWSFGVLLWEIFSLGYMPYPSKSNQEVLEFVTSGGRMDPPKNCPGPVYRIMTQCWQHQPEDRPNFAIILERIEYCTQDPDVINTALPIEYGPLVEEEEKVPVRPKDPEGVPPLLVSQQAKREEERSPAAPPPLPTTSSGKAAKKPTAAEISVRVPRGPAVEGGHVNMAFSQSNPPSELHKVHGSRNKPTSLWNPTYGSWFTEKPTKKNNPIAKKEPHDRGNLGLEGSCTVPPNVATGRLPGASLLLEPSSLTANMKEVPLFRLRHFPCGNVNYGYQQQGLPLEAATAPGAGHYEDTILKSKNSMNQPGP
experiment-description: ALK Inhibition in Enzyme Assay (Lance TR-FRET kinase assay)
Type: biochemical
Where a name gives a salt, the structure may show the parent alone.
observable: IC50

// solved cases for IC50 follow
# compound, val
measured = [
    ("C=CCNS(=O)(=O)c1cc(C(=O)Nc2nc3ccc(CN4CCCCC4)cc3n2[C@H]2CC[C@@H](C(=O)O)CC2)ccc1F", "100 to 1000 nM"),
    ("CCOC(=O)[C@H]1CC[C@@H](n2/c(=N/C(=O)c3cccc(F)c3)[nH]c3cnc(OCCN4CCC(C(C)(C)O)CC4)cc32)CC1", "< 50 nM"),
    ("O=C(/N=c1\\[nH]c2ccc(CN3CCOCC3)cc2n1[C@H]1CC[C@@H](C(=O)O)CC1)c1ccc(F)cc1", "1000 to 5000 nM"),
    ("CC(C)(O)C1CCN(Cc2ccc3[nH]/c(=N\\C(=O)c4ccc(F)cc4)n([C@H]4CC[C@@H](C(=O)N5[C@@H]6CC[C@H]5CNC6)CC4)c3c2)CC1 [Example 217, dihydrochloride]", "< 50 nM"),
    ("CC(C)NC(=O)[C@H]1CC[C@@H](n2/c(=N/C(=O)c3ccc(F)cc3)[nH]c3ccc(CN4CCC[C@H]4C(=O)O)cc32)CC1 [Example 54, hydrochloride]", "< 50 nM"),
    ("O=C(/N=c1\\[nH]c2ccc(CN3CCOCC3)cc2n1[C@H]1CC[C@@H](C(=O)N2CCNCC2)CC1)c1ccc(F)cc1", "< 50 nM"),
    ("O=C(/N=c1\\[nH]c2ccc(CN3CCCCC3)cc2n1[C@H]1CC[C@@H](C(=O)NCC2CC2)CC1)c1ccc(F)cc1", "< 50 nM"),
    ("COc1cc(F)cc(C(=O)/N=c2\\[nH]c3cnc(OCCN4CCCCC4)cc3n2[C@H]2CC[C@@H](C(=O)NC(C)C)CC2)c1", "50 to 100 nM"),
    ("COc1ccc(C(=O)/N=c2\\[nH]c3cnc(OCCN4CCCCC4)cc3n2[C@H]2CC[C@@H](C(=O)NC(C)C)CC2)cc1", "50 to 100 nM"),
    ("CC(C)NC(=O)[C@H]1CC[C@@H](n2/c(=N/C(=O)c3cccc(Cl)c3)[nH]c3cnc(OCCN4CCCCC4)cc32)CC1", "< 50 nM"),
]

Recorded IC50 of CNC(=O)[C@H]1CC[C@H](n2/c(=N/C(=O)c3ccc(F)cc3)[nH]c3cnc(OCCN4CCCCC4)cc32)CC1 , please.
100 to 1000 nM

Which IC50 reading was recorded for the compound O=C(/N=c1\[nH]c2ccc(CN3CCCCC3)cc2n1[C@H]1CC[C@@H](CO)CC1)c1ccc(F)cc1 ?
100 to 1000 nM

Given the compound CC(C)NC(=O)[C@H]1CC[C@@H](n2/c(=N/C(=O)c3ccc(C#N)c(F)c3)[nH]c3cnc(OCCN4CCCCC4)cc32)CC1 , what is its reported IC50?
< 50 nM
